Recorded values, source patent US4094984A.

# selectivity ratio per record follows
assay_remarks: Toxicity, median lethal dose (Litchfield and Wilcoxon)
Parameters: species or system Mouse; albino mice (NMRI)
assay_conditions: in vivo, po; mouse; p.o.; LD50 over pentylenetetrazole antagonism ED50; read-out: Therap. Index LD50:ED50
metric_name: selectivity ratio

>  <molecule>
CCc1cc2c(s1)-n1c(C)nnc1CN=C2c1ccccc1Cl [E, reference compound]

>  <sign>
=

>  <obs_value>
4390

$$$$
>  <molecule>
Cc1nnc2n1-c1sc(Br)cc1C(c1ccccc1F)=NC2

>  <sign>
>

>  <obs_value>
22000

$$$$
>  <molecule>
Cc1nnc2n1-c1sc(Br)cc1C(c1ccccc1Br)=NC2

>  <sign>
>

>  <obs_value>
29200

$$$$
>  <molecule>
Cc1nnc2n1-c1sc(Cl)cc1C(c1ccccc1Cl)=NC2 [F, reference compound]

>  <sign>
=

>  <obs_value>
2300

$$$$
>  <molecule>
Cc1nnc2n1-c1sc(Cl)cc1C(c1ccccc1Br)=NC2 [G, reference compound]

>  <sign>
=

>  <obs_value>
3140

$$$$
>  <molecule>
Cc1nnc2n1-c1sc(Br)cc1C(c1ccccc1Cl)=NC2

>  <sign>
>

>  <obs_value>
50000

$$$$
